Hello, the source for this data is PubChem BioAssay AID1159580, in case you need it.

Experiment: chemical genetic growth profiling, strain panel (AID 1159580);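 further: tested at 20 µM; growth read once vehicle control cultures reached saturation at 30 °C; 1 = growth at the plate median or of vehicle wells; lower values mean less growth of the strain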
Conditions: S. cerevisiae deletion strains, growth OD, locus YLR039C, strain RIC1, active compounds read low
The campaign covered roughly 5,500 compounds. About 2,000 (36%) were called active. About 18% were inconclusive and are not listed. This is one part of the list.
measure.name: normalized growth

// worked examples, normalized growth included
NCCCN	1.09 (inactive)
CC(C)(C)C1=CC(=O)C=C(C(C)(C)C)C1=O	1.03 (inactive)
CCOC(=O)CC(SP(=S)(OC)OC)C(=O)OCC (configuration not stated)	1.06 (inactive)
CCOC(=O)c1cnc2n(c1=O)CCS2	0.99 (inactive)
CC(C)(C)OC(=O)NCc1n[nH]c(=S)n1-c1ccccc1	0.998 (inactive)

# batch: return normalized growth for each of the 2 compounds below
1. COc1ccc(OC)c(CNC(=O)Cc2cccs2)c1
2. COC1=CC(C)[C@@H]2C[C@H]3OC(=O)C[C@H]4C(C)=C(OC)C(=O)C([C@@]34C)[C@@]2(C)C1=O (some centres not stated)

["1.04 (inactive)", "1.06 (inactive)"]

---

Test: chemical genetic growth profiling, strain panel (AID 1159580)
Conditions: S. cerevisiae deletion strains, growth OD, locus YDR334W, strain swr1
In all, about 5,500 compounds went through this assay and about 2,000 (36%) were called active. Another 18% or so got no clear call; they are omitted. Rule as the data show it: active = normalized growth mostly below about 0.91 (no sharp cut-off); inconclusive = no clear call, values can overlap the other calls; inactive = mostly above about 0.92. This is one part of the list.
Your reply should match one of these outcome classes. true (active), false (inactive)

C[C@@H]1CC[C@@]23CCC4(C)[C@@](C=CC5[C@@]6(C)CCC(=O)C(C)(C)C6CC[C@]54C)(OC2=O)C3[C@H]1C (stereo partly drawn)	false
CC[C@@]1(O)C(=O)OCc2c1cc1n(c2=O)Cc2cc3ccccc3nc2-1	true

# evaluate next
Hi team, can someone confirm the assay call for CC(=O)O[C@@H]1CC2C(C)(CC[C@H](O)C2(C)C)C2CC[C@]3(C)C(=CC(=O)O[C@H]3c3ccoc3)C21C (stereo partly drawn) ?
false

---

Experiment: chemical genetic growth profiling, strain panel (AID 1159580)
Conditions: S. cerevisiae deletion strains, growth OD, locus YDL074C, strain BRE1, active compounds read low
The campaign covered roughly 5,500 compounds. About 2,000 (36%) were called active. About 18% were inconclusive and are not listed. The list shows a part of the results.
measure.name: normalized growth
Give bare numbers.

CC(=O)OC1CC[C@@]2(C)C(CCC3C2CC[C@]2(C)C(C4=CC(=O)OC4)C(OC(C)=O)CC32O)C1 (some centres undefined)	0.972
CC(=O)O[C@@H]1CC2C(C)(C)CCC[C@]2(C)C2CC[C@]3(C)C(=CC(=O)O[C@H]3c3ccoc3)[C@@]21C (some centres undefined)	1.01
O=C(CCCN1CCC2(CC1)C(=O)NCN2c1ccccc1)c1ccc(F)cc1	0.972
CC1(C)S[C@@H]2C(N3C(=O)[C@@H](c4ccccc4)NC3(C)C)C(=O)N2[C@H]1C(=O)O (some centres undefined)	1.02
CC(=O)N1CCCC1C(=O)O (centres undefined)	1.02
Nc1nc(/C(=C/CC(=O)O)C(=O)N[C@@H]2C(=O)N3C(C(=O)O)=CCS[C@H]23)cs1	1.02
COc1cc(O)c2c(=O)cc(-c3ccc(OC)c(-c4c(O)cc(O)c5c(=O)cc(-c6ccc(O)cc6)oc45)c3)oc2c1	1.01
COC(=O)[C@H]1[C@H]2C[C@H]3c4[nH]c5cc(OC)ccc5c4CCN3C[C@H]2C[C@@H](OC(=O)c2cc(OC)c(OC)c(OC)c2)[C@@H]1OC	0.976

// next entry
molecule CSc1nc(NC(C)C)nc(NC(C)C)n1 , normalized growth observed: 1.01

---

Test: chemical genetic growth profiling, strain panel (AID 1159580)
Conditions: S. cerevisiae deletion strains, growth OD, locus YCL061C, strain MRC1, active compounds read low
About 2,000 (36%) of roughly 5,500 compounds were called active. Not shown: some 18% with an inconclusive outcome. This is one part of the list.
Kindly state normalized growth for each of the entries shown.
Give bare numbers.

// worked examples, normalized growth included
O=[N+]([O-])c1cccnc1Oc1ccc(Cl)cc1	0.895
CC(=O)N1CCN(c2ccc(OCC3CO[C@](Cn4ccnc4)(c4ccc(Cl)cc4Cl)O3)cc2)CC1 (stereo partly specified)	0.0977
CO[C@H]1[C@@H](O)[C@@H](C)O[C@H](O[C@H]2CCC3(C)C4CCC5(C)[C@@H](C6=CC(=O)OC6)CC[C@]5(O)[C@@H]4CC[C@]3(O)C2)[C@@H]1O (stereo partly specified)	1.02
COP(N)(=O)SC (stereo unspecified)	0.997
C=CCSC[C@@H](N)C(=O)O	0.981
COC(=O)CC1C(C)(C)C(OC(C)=O)[C@@H]2[C@@H](OC(C)=O)[C@]34O[C@@]2(O)[C@]1(C)C3CC[C@]1(C)C4=CC(=O)O[C@H]1c1ccoc1 (stereo partly specified)	1.01

# batch: return normalized growth for each of the 8 compounds below
1. Cc1ccc(SC(=O)c2cccnc2Oc2ccccc2)cc1
2. CCN(CCS(=O)(=O)c1ccc(C)cc1)S(=O)(=O)c1ccccc1
3. CSc1nc(NC(C)C)nc(NC(C)C)n1
4. CC1=C2C(O)C(=O)OC3CC4C(C)(C)C(=O)C=C[C@]4(C)C(CC1)[C@]23C (stereo partly specified)
5. Cc1c(OCC(F)(F)F)ccnc1CS(=O)c1nc2ccccc2[nH]1 (stereo unspecified)
6. CC(C)(C)NCC(O)COc1cccc2c1C[C@H](O)[C@H](O)C2 (stereo partly specified)
7. CC(C)Nc1nc(Cl)nc(NC(C)C)n1
8. NCC(O)CC(=O)O (stereo unspecified)

1. 0.989
2. 0.988
3. 0.979
4. 1
5. 1.02
6. 1.01
7. 0.987
8. 0.995

# batch: return normalized growth for each of the 2 compounds below
1. C/C=C(\C)C(=O)O[C@@H]1c2c(ccc3ccc(=O)oc23)OC(C)(C)[C@@H]1OC(C)=O
2. CC1=CC(=O)C(C(C)C)=CC1=O

0.985
0.966

---

Assay: chemical genetic growth profiling, strain panel (AID 1159580);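 further: tested at 20 µM; growth read once vehicle control cultures reached saturation at 30 °C; 1 = growth at the plate median or of vehicle wells; lower values mean less growth of the strain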
Conditions: S. cerevisiae deletion strains, growth OD, locus YDR388W, active compounds read low
About 2,000 (36%) of roughly 5,500 compounds were called active. Inconclusive results (about 18%) are left out. Some of the results follow.
Kindly state normalized growth for each of the entries shown.
Give bare numbers.

// worked examples, normalized growth included
Cc1ccc(C(C)C)c(O)c1C(=O)O	0.935
C/C=C(/C)C(=O)O[C@@H]1Cc2c(ccc3ccc(=O)oc23)OC1(C)C	0.996

# batch: return normalized growth for each of the 4 molecules below
1. O=C(O)c1cc(O)ccc1O
2. CC(C)=CC1C(CO)C1(C)C (stereo not drawn)
3. CC1(C)O[C@@H]2CC3C4C[C@H](F)C5=CC(=O)CC[C@]5(C)C4[C@@H](O)C[C@]3(C)[C@]2(C(=O)CO)O1 (stereo partly drawn)
4. CC1=CC(=O)C2C(C)(C)CCC[C@]2(C)[C@@]1(O)CCc1ccoc1 (stereo partly drawn)

[0.989, 0.999, 1.01, 0.999]

---

Test: chemical genetic growth profiling, strain panel (AID 1159580);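 further: tested at 20 µM; growth read once vehicle control cultures reached saturation at 30 °C; 1 = growth at the plate median or of vehicle wells; lower values mean less growth of the strain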
Details: S. cerevisiae deletion strains, growth OD, locus YGR052W, strain FMP48, active compounds read low
The whole screen tested about 5,500 compounds, of which about 2,000 (36%) were called active. Roughly 18% stayed inconclusive and do not appear here. This is one part of the list.
Assign labels as follows, please: MET for normalized growth below 1; NOT MET for normalized growth equal to or exceeding 1.

O=C(Nc1ccccc1C(=O)O)OCC1c2ccccc2-c2ccccc21	MET
Clc1cccc(Cl)c1C1CC(c2ccccc2)=Nc2ccccc2S1 (stereo not given)	NOT MET
N/C(=N/OC(=O)c1cnn(-c2ccc([N+](=O)[O-])cc2)c1C(F)(F)F)c1ccc(Cl)cc1	NOT MET

# evaluate next
Does this compound meet the criterion normalized growth < 1? CN(C)/C=C1\CSc2ccc(Cl)cc2C1=O
MET

---

Kindly state normalized growth for each of the entries shown.
Test: chemical genetic growth profiling, strain panel (AID 1159580);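 further: tested at 20 µM; growth read once vehicle control cultures reached saturation at 30 °C; 1 = growth at the plate median or of vehicle wells; lower values mean less growth of the strain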
Conditions: S. cerevisiae deletion strains, growth OD, locus YKL160W, strain elf1, active compounds read low
In all, about 5,500 compounds went through this assay and about 2,000 (36%) were called active. Not shown: some 18% with an inconclusive outcome. The list shows a part of the results.
Numbers only.

// worked examples, normalized growth included
CCCc1nn(C)c2c(=O)[nH]c(-c3cc(S(=O)(=O)N4CCN(C)CC4)ccc3OCC)nc12	0.999
CCCc1nc(C)c2c(=O)[nH]c(-c3cc(S(=O)(=O)N4CCN(CC)CC4)ccc3OCC)nn12	0.987
NS(=O)(=O)c1cc2c(cc1C(F)(F)F)NC(Cc1ccccc1)NS2(=O)=O (configuration not stated)	0.977
CC1(C)C(O)CC(=O)C2(C)C1CC(O)C1(C)C2CCC2(C)C(c3ccoc3)OC(=O)C3OC321 (configuration not stated)	1.01
COC1=CC(C)[C@@H]2C[C@H]3OC(=O)C[C@H]4C(C)=C(OC)C(=O)C([C@@]34C)[C@@]2(C)C1=O (some centres not stated)	1

# batch: return normalized growth for each of the 7 compounds below
1. Nc1ccc(S(=O)(=O)Nc2ncccn2)cc1
2. CC1Cc2ccccc2N1NC(=O)c1ccc(Cl)c(S(N)(=O)=O)c1 (configuration not stated)
3. CC[C@@]1(O)C(=O)OCc2c1cc1n(c2=O)Cc2cc3cc(O)ccc3nc2-1
4. CC1(C)O[C@@H]2CC3C4C[C@H](F)C5=CC(=O)CC[C@]5(C)C4[C@@H](O)C[C@]3(C)[C@]2(C(=O)CO)O1 (some centres not stated)
5. CCC(=O)O[C@]1(C(=O)CCl)[C@@H](C)CC2C3CCC4=CC(=O)C=C[C@]4(C)[C@@]3(F)[C@@H](O)C[C@@]21C (some centres not stated)
6. Nc1nc(/C(=C/CC(=O)O)C(=O)N[C@@H]2C(=O)N3C(C(=O)O)=CCS[C@H]23)cs1
7. O=C(O)C1=CC(=C(c2ccc(O)c(C(=O)O)c2)c2ccc(O)c(C(=O)O)c2)C=CC1=O

1. 1.01
2. 0.991
3. 1.02
4. 0.988
5. 1.02
6. 0.993
7. 0.976
